Give concentration at 2 hr for every item shown.
Assay: Pharmacokinetics (TK) after 30-min IV infusion in monkeys
Format: in vivo, Cynomolgus monkeys
Conditions: cynomolgus monkey, plasma; male, 2 hr; 2 mg/kg 30-min IV infusion; read-out: Plasma concentration
Give bare numbers, in ng/mL.

Below is a list of compounds. For each, state its recorded concentration at 2 hr.
1. C[C@@H](OP(=O)(N1CC1)N1CC1)c1ccc([N+](=O)[O-])c(Oc2cccc(C(=O)N(C)C)c2)c1 (single isomer, unassigned) [TH3423]
2. C[C@H](OP(=O)(N1CC1)N1CC1)c1ccc([N+](=O)[O-])c(Oc2cccc(C(=O)N(C)C)c2)c1 (single isomer, unassigned) [TH3424]

Reply:
[1.03, 7.43]
